- assay-text: Tmax in Sprague-Dawley rat at 10 mg/kg, po
- Assay type: ADME, organism-based
- Set-up: dose 10 mg/kg, route oral
- measurement-parameters: in vivo
endpoint: Tmax (h)
One number for each entry, in h.

Recorded Tmax for CC(=O)N1CCC(C(=O)N2CCC(N3CCN(C(=O)c4cc(-c5ccc(C)cc5)nc(-c5ccc(C)cc5)c4)CC3)CC2)CC1 , please?
4

* * *

- study-target: Acetyl-CoA carboxylase 2 (Homo sapiens, UniProt O00763)
- Sequence (O00763 whole entry): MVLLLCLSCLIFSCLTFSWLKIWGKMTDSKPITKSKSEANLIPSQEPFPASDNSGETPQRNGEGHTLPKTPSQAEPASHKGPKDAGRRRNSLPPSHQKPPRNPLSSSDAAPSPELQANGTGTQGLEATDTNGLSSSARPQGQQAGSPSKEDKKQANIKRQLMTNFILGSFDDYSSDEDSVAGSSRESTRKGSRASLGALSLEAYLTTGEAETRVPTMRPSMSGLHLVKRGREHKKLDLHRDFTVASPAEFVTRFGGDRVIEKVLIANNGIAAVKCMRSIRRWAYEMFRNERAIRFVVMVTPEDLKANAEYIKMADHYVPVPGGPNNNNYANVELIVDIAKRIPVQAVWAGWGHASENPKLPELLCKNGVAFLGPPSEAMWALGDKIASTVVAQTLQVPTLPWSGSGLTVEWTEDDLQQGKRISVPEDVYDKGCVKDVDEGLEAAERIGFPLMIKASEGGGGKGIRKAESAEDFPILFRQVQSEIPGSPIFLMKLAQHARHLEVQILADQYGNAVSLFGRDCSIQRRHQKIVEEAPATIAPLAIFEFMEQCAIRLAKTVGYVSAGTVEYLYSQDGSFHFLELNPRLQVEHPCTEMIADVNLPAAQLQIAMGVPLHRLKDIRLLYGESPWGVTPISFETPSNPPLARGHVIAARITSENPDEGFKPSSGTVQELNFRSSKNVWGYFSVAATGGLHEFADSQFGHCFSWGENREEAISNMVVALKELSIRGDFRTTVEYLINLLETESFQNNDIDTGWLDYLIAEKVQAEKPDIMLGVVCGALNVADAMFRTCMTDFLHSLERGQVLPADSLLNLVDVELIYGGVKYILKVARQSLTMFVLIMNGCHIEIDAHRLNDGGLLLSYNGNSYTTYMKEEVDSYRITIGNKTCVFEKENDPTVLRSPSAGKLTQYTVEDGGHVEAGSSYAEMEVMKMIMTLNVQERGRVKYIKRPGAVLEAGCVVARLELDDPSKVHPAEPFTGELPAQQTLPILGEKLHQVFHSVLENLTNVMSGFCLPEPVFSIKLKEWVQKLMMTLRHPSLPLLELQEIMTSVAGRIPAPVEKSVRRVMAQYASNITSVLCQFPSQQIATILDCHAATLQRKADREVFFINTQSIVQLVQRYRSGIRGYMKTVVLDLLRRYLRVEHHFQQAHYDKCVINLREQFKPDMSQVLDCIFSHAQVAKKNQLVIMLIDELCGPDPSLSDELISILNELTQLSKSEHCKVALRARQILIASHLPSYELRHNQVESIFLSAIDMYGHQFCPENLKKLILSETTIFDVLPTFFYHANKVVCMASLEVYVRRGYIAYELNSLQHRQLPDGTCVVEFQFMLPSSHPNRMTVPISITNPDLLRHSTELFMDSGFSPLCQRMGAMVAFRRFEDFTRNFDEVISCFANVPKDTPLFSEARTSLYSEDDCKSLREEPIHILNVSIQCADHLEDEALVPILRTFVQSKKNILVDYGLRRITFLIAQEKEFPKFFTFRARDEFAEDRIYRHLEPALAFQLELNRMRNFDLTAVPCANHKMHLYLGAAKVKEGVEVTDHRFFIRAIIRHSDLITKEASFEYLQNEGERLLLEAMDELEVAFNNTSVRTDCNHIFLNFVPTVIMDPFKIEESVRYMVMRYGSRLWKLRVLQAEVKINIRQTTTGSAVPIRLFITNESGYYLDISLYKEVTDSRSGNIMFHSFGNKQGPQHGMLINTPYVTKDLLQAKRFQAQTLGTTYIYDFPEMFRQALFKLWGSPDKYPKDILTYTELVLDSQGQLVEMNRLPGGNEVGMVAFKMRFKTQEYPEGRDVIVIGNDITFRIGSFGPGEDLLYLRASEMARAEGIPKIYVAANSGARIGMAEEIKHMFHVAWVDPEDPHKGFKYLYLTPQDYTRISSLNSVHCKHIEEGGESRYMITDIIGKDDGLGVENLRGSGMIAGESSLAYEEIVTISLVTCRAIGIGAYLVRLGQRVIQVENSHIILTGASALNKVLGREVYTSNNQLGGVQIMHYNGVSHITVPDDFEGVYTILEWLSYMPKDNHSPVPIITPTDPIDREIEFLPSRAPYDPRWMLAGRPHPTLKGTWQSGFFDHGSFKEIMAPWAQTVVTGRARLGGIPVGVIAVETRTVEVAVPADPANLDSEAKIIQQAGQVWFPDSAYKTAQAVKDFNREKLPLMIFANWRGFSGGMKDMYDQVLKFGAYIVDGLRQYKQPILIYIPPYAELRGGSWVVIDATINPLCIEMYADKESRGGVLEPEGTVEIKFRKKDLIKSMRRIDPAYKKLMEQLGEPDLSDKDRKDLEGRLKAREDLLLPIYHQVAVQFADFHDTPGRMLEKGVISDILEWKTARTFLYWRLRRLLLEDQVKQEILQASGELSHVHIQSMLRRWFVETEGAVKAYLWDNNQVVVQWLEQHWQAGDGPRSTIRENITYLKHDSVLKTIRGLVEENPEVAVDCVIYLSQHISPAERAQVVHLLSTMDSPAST
- assay-text: Inhibition of human recombinant ACC2
Consider the following compounds; for each one, report its pIC50.
Answers are plain numbers, as −log10 of the molar value.

Recorded pIC50 for CC(=O)N1CCC(C(=O)N2CCC(N3CCN(C(=O)c4cc(-c5ccc(C)cc5)nc(-c5ccc(C)cc5)c4)CC3)CC2)CC1 , please?
7.64

The record that follows has no pIC50 shown yet.
Recorded pIC50 for O=C(c1c2ccccc2cc2ccccc12)N1CCC(N2CCC[C@@H](C(=O)N3CCOCC3)C2)CC1 , please?
6.71

* * *

- study-target: Acetyl-CoA carboxylase 1 (Homo sapiens)
- assay-text: Inhibition of human recombinant ACC1
endpoint: pIC50
Answers are plain numbers, as −log10 of the molar value.

Recorded pIC50 for CC(=O)N1CCC(C(=O)N2CCC(N3CCN(C(=O)c4cc(-c5ccc(C)cc5)nc(-c5ccc(C)cc5)c4)CC3)CC2)CC1 , please?
7.00

The record that follows has no pIC50 shown yet.
Recorded pIC50 for O=C(c1c2ccccc2cc2ccccc12)N1CCC(N2CCC[C@@H](C(=O)N3CCOCC3)C2)CC1 , please?
6.34

* * *

- Test system: HepG2
- assay-text: Inhibition of fatty acid synthesis in human HepG2 cells after 48 hrs
- Format: functional, cell-based
- measurement-parameters: Homo sapiens, HepG2, 48 h
Consider the following compounds; for each one, report its pIC50.
One number for each entry, as −log10 of the molar value.

Give HepG2 pIC50 for CC(=O)N1CCC(C(=O)N2CCC(N3CCN(C(=O)c4cc(-c5ccc(C)cc5)nc(-c5ccc(C)cc5)c4)CC3)CC2)CC1
6.47

***
Give HepG2 pIC50 for O=C(c1c2ccccc2cc2ccccc12)N1CCC(N2CCC[C@@H](C(=O)N3CCOCC3)C2)CC1
6.08

* * *

- study-target: Acetyl-CoA carboxylase (Homo sapiens, UniProt Q13085+O00763)
- assay-text: Inhibition of partially purified human liver ACC1/2
endpoint: IC50 (nM)
One number for each entry, in nM.

Known IC50 results, listed for orientation:
Recorded IC50 for COC(=O)N1CCC(C(=O)N2CCC(N3CCN(C(=O)c4cc(-c5ccccc5)nc(-c5ccccc5)c4)CC3)CC2)CC1 , please?
102

Recorded IC50 for O=C(c1c2ccccc2cc2ccccc12)N1CCC(N2CCC[C@@H](C(=O)N3CCOCC3)C2)CC1 , please?
116

Recorded IC50 for NC(=O)N1CCC(C(=O)N2CCC(N3CCN(C(=O)c4cc(-c5ccccc5)nc(-c5ccccc5)c4)CC3)CC2)CC1 , please?
151

Recorded IC50 for CC(=O)N1CCC(C(=O)N2CCC(N3CCN(C(=O)c4cc(-c5cccc(C(N)=O)c5)nc(-c5cccc(C(N)=O)c5)c4)CC3)CC2)CC1 , please?
73

Recorded IC50 for O=C(c1cc(-c2ccccc2)nc(-c2ccccc2)c1)N1CCN(C2CCN(C(=O)N3CCOCC3)CC2)CC1 , please?
869

Answer for every listed entry: what is its IC50? The entries follow.
1. O=C(c1c2ccccc2cc2ccccc12)N1CCN(C2CCN(C(=O)C3CCCCC3)CC2)CC1
2. CC(=O)N1CCC(C(=O)N2CCC(N3CCN(C(=O)c4cc(-c5ccc(C(N)=O)cc5)nc(-c5ccc(C(N)=O)cc5)c4)CC3)CC2)CC1
3. CN(C)C(=O)N1CCC(C(=O)N2CCC(N3CCN(C(=O)c4cc(-c5ccccc5)nc(-c5ccccc5)c4)CC3)CC2)CC1
4. CNC(=O)N1CCC(C(=O)N2CCC(N3CCN(C(=O)c4cc(-c5ccccc5)nc(-c5ccccc5)c4)CC3)CC2)CC1
5. CC(=O)N1CCC(C(=O)N2CCC(N3CCN(C(=O)c4cc(-c5ccc(CO)cc5)nc(-c5ccc(CO)cc5)c4)CC3)CC2)CC1
6. O=C(c1c2ccccc2cc2ccccc12)N1CCN(C2CCN(C(=O)C3CCCC3)CC2)CC1
7. O=C(c1c2ccccc2cc2ccccc12)N1CCN(C2CCN(C(=O)N3CCCCC3)CC2)CC1
8. COc1ccc(-c2cc(C(=O)N3CCN(C4CCN(C(=O)C5CCN(C(C)=O)CC5)CC4)CC3)cc(-c3ccc(OC)cc3)n2)cc1

1. 91
2. 67
3. 169
4. 95
5. 32
6. 95
7. 121
8. 68

Answer for every listed entry: what is its IC50? The entries follow.
1. Cc1cc(C(=O)N2CCC(N3CCN(C(=O)c4c5ccccc5cc5ccccc45)CC3)CC2)c(C)o1
2. COCC(=O)N1CCC(C(=O)N2CCC(N3CCN(C(=O)c4cc(-c5ccccc5)nc(-c5ccccc5)c4)CC3)CC2)CC1

60
169

* * *

- assay-text: Cmax in Sprague-Dawley rat at 10 mg/kg, po
- Assay type: ADME, organism-based
- Parameters: dose 10 mg/kg, route oral
- measurement-parameters: in vivo
endpoint: Cmax (ng/mL)
Answers are plain numbers, in ng/mL.

Recorded Cmax for CC(=O)N1CCC(C(=O)N2CCC(N3CCN(C(=O)c4cc(-c5ccc(C)cc5)nc(-c5ccc(C)cc5)c4)CC3)CC2)CC1 , please?
107

* * *

Consider the following compounds; for each one, report its IC50.
- study-target: Acetyl-CoA carboxylase (Homo sapiens, UniProt Q13085+O00763)
- assay-text: Inhibition of partially purified human liver ACC1/2

Give Acetyl-CoA carboxylase (Homo sapiens, UniProt Q13085+O00763) IC50 for O=C(Cc1ccccc1)N1CCC(N2CCN(C(=O)c3c4ccccc4cc4ccccc34)CC2)CC1
2112 nM

Give Acetyl-CoA carboxylase (Homo sapiens, UniProt Q13085+O00763) IC50 for CC(C)OC(=O)N1CCC(C(=O)N2CCC(N3CCN(C(=O)c4cc(-c5ccccc5)nc(-c5ccccc5)c4)CC3)CC2)CC1
411 nM

Give Acetyl-CoA carboxylase (Homo sapiens, UniProt Q13085+O00763) IC50 for O=C(c1ccccc1)N1CCC(N2CCN(C(=O)c3cc(-c4ccccc4)nc(-c4ccccc4)c3)CC2)CC1
693 nM

Answer for every listed entry: what is its IC50? The entries follow.
1. O=C(c1cc(-c2ccccc2)nc(-c2ccccc2)c1)N1CCN(C2CCN(C(=O)N3CCCCC3)CC2)CC1
2. CC(=O)N1CCC(C(=O)N2CCC(N3CCN(C(=O)c4cc(-c5ccc(C)cc5)nc(-c5ccc(C)cc5)c4)CC3)CC2)CC1

["434 nM", "76 nM"]

Answer for every listed entry: what is its IC50? The entries follow.
1. Cc1cc(C(=O)N2CCC(N3CCN(C(=O)c4cc(-c5ccccc5)nc(-c5ccccc5)c4)CC3)CC2)c(C)o1
2. CC(=O)N1CCC(C(=O)N2CCC(N3CCN(C(=O)c4cc(-c5ccccc5)nc(-c5ccc(F)cc5)c4)CC3)CC2)CC1
3. O=C(c1ccco1)N1CCC(N2CCN(C(=O)c3c4ccccc4cc4ccccc34)CC2)CC1
4. CO[C@H]1CC[C@H](C(=O)N2CCC(N3CCN(C(=O)c4cc(-c5ccccc5)nc(-c5ccccc5)c4)CC3)CC2)CC1
5. CCC(=O)N1CCC(C(=O)N2CCC(N3CCN(C(=O)c4cc(-c5ccccc5)nc(-c5ccccc5)c4)CC3)CC2)CC1

157 nM
184 nM
161 nM
155 nM
115 nM

Answer for every listed entry: what is its IC50? The entries follow.
1. CS(=O)(=O)N1CCC(C(=O)N2CCC(N3CCN(C(=O)c4cc(-c5ccccc5)nc(-c5ccccc5)c4)CC3)CC2)CC1
2. CC(=O)N1CCC(C(=O)N2CCC(N3CCN(C(=O)c4cc(-c5ccccc5)nc(-c5ccccc5)c4)CC3)CC2)CC1

["248 nM", "126 nM"]

Answer for every listed entry: what is its IC50? The entries follow.
1. O=C(c1ccccc1)N1CCC(C(=O)N2CCC(N3CCN(C(=O)c4cc(-c5ccccc5)nc(-c5ccccc5)c4)CC3)CC2)CC1
2. O=C(c1ccccc1)N1CCC(N2CCN(C(=O)c3c4ccccc4cc4ccccc34)CC2)CC1
3. O=C(c1c2ccccc2cc2ccccc12)N1CCN(C2CCN(C(=O)N3CCOCC3)CC2)CC1
4. O=C(c1cc(-c2ccccc2)nc(-c2ccccc2)c1)N1CCN(C2CCN(C(=O)C3CCCCC3)CC2)CC1

["290 nM", "66 nM", "239 nM", "244 nM"]
